# Test system: Pseudomonas aeruginosa
# assay_info: Antimicrobial activity against Pseudomonas aeruginosa PA14 assessed as inhibition of biofilm formation after 24 hrs by spectrophotometry
# Type: functional, organism-based
# conditions: PA14, 24 h
attribute_measured: IC50 (µM)

Below, each entry is followed by its recorded IC50 result.
>  <smiles_data>
CC(C)N1c2nccc[n+]2C[C@@]1(O)c1ccc([N+](=O)[O-])cc1

>  <IC50 / µM>
192

$$$$
>  <smiles_data>
CCCCCCCCN1c2nccc[n+]2C[C@@]1(O)c1cccc2ccccc12

>  <IC50 / µM>
15.1

$$$$

[a] O[C@@]1(c2ccc(Cl)cc2)C[n+]2cccnc2N1C1CCCCCCCCCCC1
[b] CCCCCNc1ncc(-c2ccc(Br)cc2)[nH]1
[c] CC(C)CN1c2nccc[n+]2C[C@@]1(O)c1ccc([N+](=O)[O-])cc1
[d] CCCCCCCCN1c2nccc[n+]2C[C@@]1(O)c1ccc(Cl)cc1
Task field, ranking: reported IC50, descending order. Please list the labels according to the requested order.
c, d, b, a

====

# System: Pseudomonas aeruginosa
# assay_info: Antimicrobial activity against Pseudomonas aeruginosa PA14 assessed as inhibition of biofilm formation after 24 hrs by spectrophotometry
# Format: functional, organism-based
# conditions: PA14, 24 h
attribute_measured: IC50 (µM)

Below, each entry is followed by its recorded IC50 result.
>  <smiles_data>
CCCCCCNc1ncc(-c2ccc(F)cc2)[nH]1

>  <attribute_measured>
IC50

>  <test_value>
12.5

$$$$
>  <smiles_data>
CCCCCCCCCN1c2nccc[n+]2C[C@@]1(O)c1ccc(Cl)cc1

>  <attribute_measured>
IC50

>  <test_value>
20.2

$$$$
>  <smiles_data>
O=[N+]([O-])c1ccc([C@]2(O)C[n+]3cccnc3N2C2CC2)cc1

>  <attribute_measured>
IC50

>  <test_value>
20.4

$$$$

[I] Clc1ccc(-c2cnc(NC3CCCC3)[nH]2)cc1Cl
[II] CSc1ccc(-c2cnc(NC3CCCCC3)[nH]2)cc1
Higher IC50: I or II ? Refer to your chosen item by its label in the answer.
II

====

# Tested on: Pseudomonas aeruginosa
# assay_info: Antimicrobial activity against Pseudomonas aeruginosa PA14 assessed as inhibition of biofilm formation after 24 hrs by spectrophotometry
# Type: functional, organism-based
# conditions: PA14, 24 h
pIC50: −log10 of the molar value.
Let's look at some compounds and their measured pIC50.

Below, each entry is followed by its recorded pIC50 result.
>  <smiles_data>
CC(C)N1c2nccc[n+]2C[C@@]1(O)c1ccccc1

>  <pIC50>
< 3.40

$$$$
>  <smiles_data>
COc1cccc(CNc2ncc(-c3ccc(Cl)c(Cl)c3)[nH]2)c1

>  <pIC50>
< 3.10

$$$$

Proceed to the following item.
Please look at CCCCCCCCCCCCCN1c2nccc[n+]2C[C@@]1(O)c1ccc(Cl)cc1 and tell me its recorded pIC50 on Pseudomonas aeruginosa.
< 3.10
